Recorded IC50 by entry
assay_system: ALDH1a1 (Homo sapiens (Human), UniProt P00352)
Sequence (P00352 whole entry): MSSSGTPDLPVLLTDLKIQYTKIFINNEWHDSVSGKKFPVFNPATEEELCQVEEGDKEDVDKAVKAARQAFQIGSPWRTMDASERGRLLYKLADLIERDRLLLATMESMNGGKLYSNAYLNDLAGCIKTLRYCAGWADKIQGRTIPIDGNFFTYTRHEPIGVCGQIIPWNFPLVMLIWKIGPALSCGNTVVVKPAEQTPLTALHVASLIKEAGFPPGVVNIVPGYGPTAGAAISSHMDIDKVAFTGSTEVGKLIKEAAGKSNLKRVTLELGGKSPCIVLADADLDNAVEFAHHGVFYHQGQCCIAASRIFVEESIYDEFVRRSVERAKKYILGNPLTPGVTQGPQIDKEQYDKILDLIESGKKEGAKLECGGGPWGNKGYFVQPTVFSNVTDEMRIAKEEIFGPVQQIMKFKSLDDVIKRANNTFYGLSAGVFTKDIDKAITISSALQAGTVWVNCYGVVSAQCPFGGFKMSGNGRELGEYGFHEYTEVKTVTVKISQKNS
method: ALDH assay (diaphorase/resazurin), ALDH1a1 inhibition
Assay type: biochemical
conditions: Table III; read-out: Aldh1a1 (IC50, μM) ± SE

{"columns": ["molecule", "assay_system", "IC50"],
 "data": [
  ["CCN(Cc1ccco1)C(=S)SSC(=S)N(CC)Cc1ccco1 [III-2p]", "ALDH1a1 (Homo sapiens (Human), UniProt P00352)", "0.39 µM"],
  ["CCN(Cc1ccsc1)C(=S)SSC(=S)N(CC)Cc1ccsc1 [III-2r]", "ALDH1a1 (Homo sapiens (Human), UniProt P00352)", "0.17 µM"],
  ["CCN(Cc1cccs1)C(=S)SSC(=S)N(CC)Cc1cccs1 [III-2q]", "ALDH1a1 (Homo sapiens (Human), UniProt P00352)", "0.39 µM"],
  ["CCN(Cc1ccc(OC)cc1)C(=S)SSC(=S)N(CC)Cc1ccc(OC)cc1", "ALDH1a1 (Homo sapiens (Human), UniProt P00352)", "0.58 µM"],
  ["CCN(Cc1ccncc1)C(=S)SSC(=S)N(CC)Cc1ccncc1 [III-2o]", "ALDH1a1 (Homo sapiens (Human), UniProt P00352)", "5.76 µM"]
]}

---

assay_system: human MAGL (hMAGL) (Homo sapiens (Human), UniProt Q99685)
Sequence (Q99685 whole entry): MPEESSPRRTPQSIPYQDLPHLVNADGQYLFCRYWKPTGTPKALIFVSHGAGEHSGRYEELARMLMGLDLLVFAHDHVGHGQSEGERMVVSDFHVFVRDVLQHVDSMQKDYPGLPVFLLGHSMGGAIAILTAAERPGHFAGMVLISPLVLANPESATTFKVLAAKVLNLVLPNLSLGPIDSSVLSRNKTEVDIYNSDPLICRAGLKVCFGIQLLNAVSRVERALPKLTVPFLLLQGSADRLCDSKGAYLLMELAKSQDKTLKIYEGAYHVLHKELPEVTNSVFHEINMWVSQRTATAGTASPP
method: MAGL enzyme inhibition assay (4-nitrophenylacetate)
Format: biochemical
conditions: Table II; average of at least two experiments; read-out: IC50 (μM) ± SE (hMAGL)
Rule: IC50 below 0.9 µM gives true, anything at or above gives false.

{"columns": ["compound", "assay_system", "assigned_label"],
 "data": [
  ["CCN(CCC(=O)O)C(=S)SSC(=S)N(CC)CCC(=O)O", "human MAGL (hMAGL) (Homo sapiens (Human), UniProt Q99685)", "true"],
  ["CC(C)CN(CC(C)C)C(=S)SSC(=S)N(CC(C)C)CC(C)C [Compound I-2j, reference compound]", "human MAGL (hMAGL) (Homo sapiens (Human), UniProt Q99685)", "false"],
  ["CCN(CCO)C(=S)SSC(=S)N(CC)CCO", "human MAGL (hMAGL) (Homo sapiens (Human), UniProt Q99685)", "true"],
  ["CCN(CC)C(=S)SSC(=S)N(CC)CC [Disulfiram, reference compound]", "human MAGL (hMAGL) (Homo sapiens (Human), UniProt Q99685)", "false"],
  ["CC(C)N(C(=S)SSC(=S)N(C(C)C)C(C)C)C(C)C [Compound I-2h, reference compound]", "human MAGL (hMAGL) (Homo sapiens (Human), UniProt Q99685)", "false"],
  ["CCN(Cc1ccc(C(=O)O)cc1)C(=S)SSC(=S)N(CC)Cc1ccc(C(=O)O)cc1", "human MAGL (hMAGL) (Homo sapiens (Human), UniProt Q99685)", "false"],
  ["CCOC(=O)CCN(CC)C(=S)SSC(=S)N(CC)CCC(=O)OCC", "human MAGL (hMAGL) (Homo sapiens (Human), UniProt Q99685)", "false"]
]}

---

assay_system: ALDH2 (Homo sapiens (Human), UniProt P05091)
Sequence (P05091 18-517): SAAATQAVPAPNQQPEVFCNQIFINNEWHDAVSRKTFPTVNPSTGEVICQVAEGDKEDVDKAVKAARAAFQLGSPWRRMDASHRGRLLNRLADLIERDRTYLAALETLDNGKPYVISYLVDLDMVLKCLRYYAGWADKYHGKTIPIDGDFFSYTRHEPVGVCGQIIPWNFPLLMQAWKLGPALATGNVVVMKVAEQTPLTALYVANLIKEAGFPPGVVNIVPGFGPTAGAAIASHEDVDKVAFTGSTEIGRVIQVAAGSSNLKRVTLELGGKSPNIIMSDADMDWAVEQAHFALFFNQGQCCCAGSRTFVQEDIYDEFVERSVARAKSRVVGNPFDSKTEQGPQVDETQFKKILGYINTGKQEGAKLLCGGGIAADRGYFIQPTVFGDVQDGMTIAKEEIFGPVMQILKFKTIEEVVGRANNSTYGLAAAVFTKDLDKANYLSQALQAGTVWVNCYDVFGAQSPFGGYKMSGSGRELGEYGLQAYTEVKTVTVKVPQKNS
method: ALDH assay (diaphorase/resazurin), ALDH2 inhibition
Format: biochemical
conditions: Table IB; mean of at least two independent experiments; read-out: IC50 (μM) ± SE (ALDH2)

{"columns": ["compound", "endpoint_unit", "relation", "IC50"],
 "data": [
  ["CC(C)N(C(=S)SSC(=S)N(C(C)C)C(C)C)C(C)C [Compound I-2h, reference compound]", "µM", ">", 100],
  ["CCN(CCC(=O)O)C(=S)SSC(=S)N(CC)CCC(=O)O", "µM", "=", 0.85],
  ["CCN(CCO)C(=S)SSC(=S)N(CC)CCO", "µM", "=", 25.7],
  ["CN(C)C(=S)SSC(=S)N(C)C [Compound I-2g, reference compound]", "µM", "=", 0.32],
  ["CCN(Cc1ccc(C(=O)O)cc1)C(=S)SSC(=S)N(CC)Cc1ccc(C(=O)O)cc1", "µM", "=", 99.4]
]}
